Field: ICW 2. Provide a value for each of the compounds that follow.
# MEASUREMENT TARGET: EGFR (Homo sapiens)
# Construct: host or cells: A431
# Sequence (P00533 25-1210): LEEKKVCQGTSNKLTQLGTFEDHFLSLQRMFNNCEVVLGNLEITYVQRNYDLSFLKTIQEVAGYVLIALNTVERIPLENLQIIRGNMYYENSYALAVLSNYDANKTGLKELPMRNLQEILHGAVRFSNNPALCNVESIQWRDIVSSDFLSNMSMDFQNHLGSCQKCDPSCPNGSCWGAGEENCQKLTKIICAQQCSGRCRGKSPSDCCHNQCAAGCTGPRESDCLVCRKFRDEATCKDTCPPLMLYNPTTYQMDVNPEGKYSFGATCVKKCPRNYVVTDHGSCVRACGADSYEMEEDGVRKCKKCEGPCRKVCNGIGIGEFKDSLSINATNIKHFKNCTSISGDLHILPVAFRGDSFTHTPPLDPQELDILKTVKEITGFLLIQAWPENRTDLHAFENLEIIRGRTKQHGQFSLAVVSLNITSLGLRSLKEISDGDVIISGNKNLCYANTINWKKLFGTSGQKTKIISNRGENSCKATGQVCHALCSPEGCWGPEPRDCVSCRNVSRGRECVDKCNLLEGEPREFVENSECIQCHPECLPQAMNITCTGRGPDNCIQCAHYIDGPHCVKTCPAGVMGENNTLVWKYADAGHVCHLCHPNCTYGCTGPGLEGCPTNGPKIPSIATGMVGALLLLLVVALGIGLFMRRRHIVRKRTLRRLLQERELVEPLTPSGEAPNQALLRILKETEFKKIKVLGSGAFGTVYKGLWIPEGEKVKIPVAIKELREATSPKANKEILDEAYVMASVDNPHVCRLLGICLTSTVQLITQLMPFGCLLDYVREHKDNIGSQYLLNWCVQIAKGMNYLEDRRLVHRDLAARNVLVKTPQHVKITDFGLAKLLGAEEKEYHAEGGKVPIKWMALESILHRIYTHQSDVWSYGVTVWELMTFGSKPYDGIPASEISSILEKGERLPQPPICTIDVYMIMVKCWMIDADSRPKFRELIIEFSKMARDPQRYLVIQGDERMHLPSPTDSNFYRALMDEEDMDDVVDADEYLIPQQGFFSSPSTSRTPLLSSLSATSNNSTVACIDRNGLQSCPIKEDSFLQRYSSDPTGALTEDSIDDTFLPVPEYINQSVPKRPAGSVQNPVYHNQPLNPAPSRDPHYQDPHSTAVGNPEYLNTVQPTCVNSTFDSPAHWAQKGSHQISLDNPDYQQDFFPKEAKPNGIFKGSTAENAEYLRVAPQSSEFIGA
# PROTOCOL DESCRIPTION: EGFR in-cell Western (ICW) screening protocol (EGFR inhibition assay)
# Assay type: cell-based
# Parameters: unit not given here
# PARTICULARS: ICW assay, run 2
Where a name gives a salt, the structure may show the parent alone.
// no unit, no text: just the number

Exercise: State the recorded ICW 2 for this entry: CCCc1c(C)nc(Nc2nc(C)c3cc(C)c(C)cc3n2)[nH]c1=O [12614 + TFA]
Solution: 34.09

Exercise: Which ICW 2 value is on record for CCOc1ccc2nc(Nc3nc(C)cc(-c4ccccc4)n3)nc(C)c2c1 [12688 + TFA] ?
Solution: 26.95

Exercise: Requested field: ICW 2. Item: COc1ccccc1-c1cc(=O)[nH]c(Nc2nc(C)c3cc(C)c(C)cc3n2)n1 [11746 + TFA]
Solution: 21.86

Exercise: What measured ICW 2 goes with Cc1cc(C)nc(Nc2nc(-c3ccccc3)c3ccc(Cl)cc3n2)n1 [compound 11636] ?
Solution: 63.84

Exercise: Request the reported ICW 2 associated with COc1cccc2c(C)nc(Nc3nc4c(c(=O)[nH]3)CCCC4)nc12 [11484 + TFA]
Solution: 73.46

Exercise: Entry CCOc1cccc2c(C)nc(Nc3nc(-c4ccccc4)cc(=O)[nH]3)nc12 has what ICW 2?
Solution: 71.23

Exercise: // ICW 2 lookup, key: CCCc1c(C)nc(Nc2nc(C)c3cc(C)cc(C)c3n2)[nH]c1=O [12612 + TFA]
Solution: 45.51
